Reported cytotoxicity at 10 µM by item:
# experiment description: Toxicity liver stage against HepG2, at 10uM
# Format: cell-based
# Design: test concentration 10 uM, cell line HepG2-A16-CD81EGFP
# recorded conditions: human, HepG2-A16-CD81EGFP cells; read-out: INHIBITION

| compound | cytotoxicity at 10 µM (%) |
| --- | --- |
| CN(CCn1cccn1)C1CCCN(Cc2noc(C3CC3)n2)C1 (stereo not drawn) | 15 |
| O=C(Nc1ccc(CCN2CCC(O)CC2)cc1)C1CCOCC1 | -8.08 |
| Cn1cc(C(=O)N[C@@H]2CN(Cc3ccc(F)cc3)[C@@H]3CCCO[C@@H]32)cn1 | -1.31 |
| CCCc1nnc(SCc2cc(=O)n3c4c(sc3n2)CCCC4)[nH]1 | -1.05 |
| Cc1ccc(C2CN(CCCC#N)CCO2)c(C)c1 (stereo not drawn) | -2.16 |
| CC(C)CC(=O)N1CCCC1c1cc(CO)[nH]n1 (stereo not drawn) | 3.05 |
| CCC[C@@H]1CN(S(=O)(=O)c2ccc3[nH]c(=O)[nH]c3c2)C[C@H]1NC(C)=O | -7.19 |
| O=C(Cc1ccsc1)NCC1OCCc2cn(CC3CC3)nc21 (stereo not drawn) | 9.77 |

---

cytotoxicity at 10 µM for assorted compounds
# experiment description: Toxicity liver stage against HepG2, at 10uM
# Format: cell-based
# Design: test concentration 10 uM, cell line HepG2-A16-CD81EGFP
# recorded conditions: human, HepG2-A16-CD81EGFP cells; read-out: INHIBITION
recorded endpoint: cytotoxicity at 10 µM (%)

| compound | test value |
| --- | --- |
| Cc1ccc(NC(=O)NCCCn2nc3ccccn3c2=O)cc1 | -19.1 |
| CCc1nnc2n1CCN(C(=O)C(C)COCc1ccccc1)C2 (stereo not drawn) | -9.46 |
| Cc1nc(CN(Cc2ccccc2)C2CCS(=O)(=O)C2)oc1C (stereo not drawn) | -8.13 |
| O=C(CC1CCCC1)N1CCC2(CC1)[C@H](O)C[C@@H]2O | 2.3 |
| Cc1oc(-c2nc(C#N)c(NC(C)C)o2)cc1S(=O)(=O)N1CCCC1 | 5.61 |
| COc1cc2[nH]c(C(=O)O)cc2c(OC)c1C | -1.51 |
| CCNC(=O)C1CCCN(C(=O)Nc2cc(C#N)ccc2OCC)C1 (stereo not drawn) | -1.71 |
| CSc1ccc(NC(=O)Nc2ccc3c(c2)N(S(C)(=O)=O)CC3)cc1 | 48.5 |
| COCCNC(=O)NCCn1nc(C(F)(F)F)n(C)c1=O | -2.06 |
| CC(=O)NC1CCCN(C(=O)NCc2ccc(-n3cccn3)cc2)C1 (stereo not drawn) | -11.8 |
| CC1CCCCN1Cc1nc(Cc2ccccc2)no1 (stereo not drawn) | 4.61 |
| Cc1noc([C@@H]2C[C@H]3OCC[C@H]3N(S(=O)(=O)N(C)C)C2)n1 | -122 |
| Cc1nc2cc(=O)[nH]n2c(C)c1CC(=O)Nc1cnn(C(C)(C)C)c1 | 15 |

---

Readings of cytotoxicity at 10 µM for the listed molecules
# experiment description: Toxicity liver stage against HepG2, at 10uM
# Type: cell-based
# Set-up: test concentration 10 uM, cell line HepG2-A16-CD81EGFP
# recorded conditions: human, HepG2-A16-CD81EGFP cells; read-out: INHIBITION

| molecule | cytotoxicity at 10 µM |
| --- | --- |
| N#Cc1ccc(CS(=O)(=O)NC(=O)c2ccc3c(c2)COC3)cc1 | 3.65% |
| O[C@@]1(c2ccccn2)CC[C@H]2CN(Cc3cccc(Cl)c3Cl)C[C@H]21 | 0.256% |
| CCCC(C)CS(=O)(=O)NCc1cccnc1OC (stereo not drawn) | -18% |

---

Quick reference: cytotoxicity at 10 µM of the listed items.
# experiment description: Toxicity liver stage against HepG2, at 10uM
# Format: cell-based
# Parameters: test concentration 10 uM, cell line HepG2-A16-CD81EGFP
# recorded conditions: human, HepG2-A16-CD81EGFP cells; read-out: INHIBITION

| compound | units label | cytotoxicity at 10 µM |
| --- | --- | --- |
| O=C(c1ccnnc1)N1CCN(Cc2cccnc2)c2ncccc2C1 | % | 0.121 |
| Cc1ccc(CN2CCc3[nH]nc(C(=O)N(C)C)c3C2)o1 | % | 0.081 |
| CCn1c(CN2CCC(O)(c3ccc4c(c3)OCO4)CC2)cnc1SC | % | 6.96 |
| COc1ncccc1NC(=O)NC1CCOc2ccccc21 (centres undefined) | % | -7.62 |
| COCCNc1c(-c2ccc(C)cc2)c(=O)c1=O | % | -5.15 |
| Cc1nc2ccccc2nc1CN1CCCC(Cn2cncn2)C1 (centres undefined) | % | -4.57 |
| CCN(Cc1noc(CC(C)C)n1)Cc1ccccc1C | % | -50.8 |
| CN1CCC2(CC1)OC(C(=O)NCc1cccnc1)Cn1ccnc12 (centres undefined) | % | -87.3 |
| CCNC(=O)Nc1ncc(-c2cccnc2)s1 | % | 14.6 |
| Cc1ccccc1CCNC(=O)C1CC(=O)N(CC(F)(F)F)C1 (centres undefined) | % | -6.17 |
| N#Cc1ccccc1CC1CCCS(=O)(=O)C1 (centres undefined) | % | -3.11 |
| CSC1(CNC(=O)NCc2sccc2C)CCOCC1 | % | -49.6 |
| CC(C)n1cc(-c2nc3cc(S(=O)(=O)N4CCCC4)ccc3n2C)cn1 | % | 1.12 |
| CC(C)N1C[C@@H]2CN(C(=O)NCc3ccccc3)CCC[C@]2(C(=O)O)C1 | % | 9.37 |

---

# experiment description: Toxicity liver stage against HepG2, at 10uM
# Format: cell-based
# Parameters: test concentration 10 uM, cell line HepG2-A16-CD81EGFP
# recorded conditions: human, HepG2-A16-CD81EGFP cells; read-out: INHIBITION
Quick list: cytotoxicity at 10 µM per entry.

| molecule | cytotoxicity at 10 µM |
| --- | --- |
| Cn1nnc2c1CCN(C(=O)CC1CC1)C2COCCN1CCCC1 (stereo not drawn) | 17.4% |
| Cc1ncsc1-c1nnc(C2CCN(CC3CCCCC3)CC2)o1 | 1.59% |
| Cc1nn(C)cc1S(=O)(=O)N[C@@H]1CCC[C@@H](N2CCCC2)[C@@H]1O | -3.02% |

---

Quick list: cytotoxicity at 10 µM per entry.
# experiment description: Toxicity liver stage against HepG2, at 10uM
# Format: cell-based
# Set-up: test concentration 10 uM, cell line HepG2-A16-CD81EGFP
# recorded conditions: human, HepG2-A16-CD81EGFP cells; read-out: INHIBITION
recorded endpoint: cytotoxicity at 10 µM (%)

| compound | recorded endpoint | test value |
| --- | --- | --- |
| CC(C)NC(=O)N1C[C@@H]2C[C@H](C(=O)N3CCCC3)[C@H](C1)O2 | cytotoxicity at 10 µM | -101 |
| Cc1ccc(N(CCC#N)C(=O)CN2CCCC2c2cccs2)cc1 (centres undefined) | cytotoxicity at 10 µM | -3.75 |
| Cc1ccccc1NC(=O)N1CCN(Cc2noc(C3CC3)n2)CC1 | cytotoxicity at 10 µM | -17 |
| COc1cccc2c1OCC(Cc1cc(C(N)=O)ccn1)C2 (centres undefined) | cytotoxicity at 10 µM | 5.83 |

---

# experiment description: Toxicity liver stage against HepG2, at 10uM
# Assay type: cell-based
# Design: test concentration 10 uM, cell line HepG2-A16-CD81EGFP
# recorded conditions: human, HepG2-A16-CD81EGFP cells; read-out: INHIBITION
Reported cytotoxicity at 10 µM values for a set of molecules

| molecule | cytotoxicity at 10 µM, % |
| --- | --- |
| CN1CC(NC(=O)Cc2csc(C(C)(C)C)n2)CCC1=O (centres undefined) | 1.82 |
| CC(C)c1cc(C(=O)N2CCN(C)[C@@H]3CS(=O)(=O)C[C@@H]32)no1 | 4.14 |
| CC1CCN(c2ccc(C(=O)N3CCCC3c3nncn3C)cn2)CC1 (centres undefined) | -1.88 |
| CCC(CC)c1cc(CNC(=O)N2CCCC(c3ncc[nH]3)C2)on1 (centres undefined) | -2.02 |

---

cytotoxicity at 10 µM: recorded values
# experiment description: Toxicity liver stage against HepG2, at 10uM
# Assay type: cell-based
# Design: test concentration 10 uM, cell line HepG2-A16-CD81EGFP
# recorded conditions: human, HepG2-A16-CD81EGFP cells; read-out: INHIBITION
recorded endpoint: cytotoxicity at 10 µM (%)

| compound | recorded endpoint | test value |
| --- | --- | --- |
| Cc1nc(N2CCC3(CCCN(CC4CC4)C3=O)C2)c2sccc2n1 (stereo not given) | cytotoxicity at 10 µM | 42 |
| NCCn1nc(C2CCN(Cc3ccccc3Cl)C2)c2nccnc21 (stereo not given) | cytotoxicity at 10 µM | -14.9 |
| O=C(CN1CCCNC1=O)N(Cc1ccccc1)CC(F)F | cytotoxicity at 10 µM | 5.9 |
| c1cc2nccc(CC3CCCN(C4CCOCC4)CC3)c2cn1 (stereo not given) | cytotoxicity at 10 µM | -8.24 |
| COc1c(C2CCCN2C(=O)c2cc(C3CC3)on2)c(C)nn1C (stereo not given) | cytotoxicity at 10 µM | -2.87 |
| O=C(Nc1ccc(Cl)cc1C(=O)NCCN1CCOCC1)c1ccco1 | cytotoxicity at 10 µM | -4.62 |
| CCc1ccc(CN2CCNC(C(=O)N3CCN(C)CC3)C2)o1 (stereo not given) | cytotoxicity at 10 µM | -0.891 |
| COc1cc(NC2CCCNC2)cc(OC)c1 (stereo not given) | cytotoxicity at 10 µM | -9.57 |
| O=C(C[C@@H]1COC[C@H]2CN(C(=O)c3cccnc3)C[C@@H]12)N1CCCC1 | cytotoxicity at 10 µM | -118 |
| CS(=O)(=O)N1Cc2ccccc2CC2(CCN(Cc3ccccc3)C2)C1 (stereo not given) | cytotoxicity at 10 µM | 7.38 |
| CCN(CC1CCOC1)C(=O)c1ccc(N(C)C)cc1F (stereo not given) | cytotoxicity at 10 µM | 3.54 |
| CC(NC(=O)C1=NN(C)C(=O)CC1)c1cccc(Cl)c1 (stereo not given) | cytotoxicity at 10 µM | -2.45 |
| CCc1cc(C(=O)N2CCC(c3cc4ncccc4cn3)CC2)on1 | cytotoxicity at 10 µM | -13 |
| CC(C)NC(=O)[C@@H]1CC[C@@H]2[C@@H](CCN2Cc2cn(C)c3ccccc23)O1 | cytotoxicity at 10 µM | 9.49 |
| CC(C)CN1C[C@@H]2C[C@H](C(=O)Nc3cccnc3)[C@H](C1)O2 | cytotoxicity at 10 µM | 7.8 |
